B1: TPR 5TU (parent)
chain: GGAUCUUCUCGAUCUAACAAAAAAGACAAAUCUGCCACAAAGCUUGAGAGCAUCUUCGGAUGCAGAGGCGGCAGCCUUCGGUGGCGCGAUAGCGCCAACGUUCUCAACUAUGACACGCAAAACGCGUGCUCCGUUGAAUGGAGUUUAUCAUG

# Variants of: B1
# assay info: polymerase ribozyme fitness, log enrichment relative to wild type (log ratio); higher = more active; in vitro selection for triplet polymerase activity
Fewer inactive variants are shown than the library holds.
Examples of variants with documented polymerase ribozyme fitness (log ratio) follow.
# print the numeric value only

Answered examples (2):
Form field: reported polymerase ribozyme fitness (log ratio) of A98U U134G
-2.65

What value of polymerase ribozyme fitness (log ratio) has been recorded for this entry: U61A A73G G94U
-3

---
Fill in: polymerase ribozyme fitness (log ratio) of U56G C85G A115U is ___
-3.43

Can you share its polymerase ribozyme fitness (log ratio)? I mean this variant: C38G G92C C95U
-1.62

Quick one: polymerase ribozyme fitness (log ratio) of G25U C103G ?
-3.2

For A21U C85U G124A G126A G136A , what is its reported polymerase ribozyme fitness (log ratio)?
-3.04

Find the recorded polymerase ribozyme fitness (log ratio) belonging to A91U C118G G141C and report it.
-3.94

Look at this variant and give its reported polymerase ribozyme fitness (log ratio). A37G C93U C116G
-2.65
